Molecular target: hCA XII (Homo sapiens)
Construct: gene CA12; recombinant, obtained in-house
Sequence (O43570 25-354): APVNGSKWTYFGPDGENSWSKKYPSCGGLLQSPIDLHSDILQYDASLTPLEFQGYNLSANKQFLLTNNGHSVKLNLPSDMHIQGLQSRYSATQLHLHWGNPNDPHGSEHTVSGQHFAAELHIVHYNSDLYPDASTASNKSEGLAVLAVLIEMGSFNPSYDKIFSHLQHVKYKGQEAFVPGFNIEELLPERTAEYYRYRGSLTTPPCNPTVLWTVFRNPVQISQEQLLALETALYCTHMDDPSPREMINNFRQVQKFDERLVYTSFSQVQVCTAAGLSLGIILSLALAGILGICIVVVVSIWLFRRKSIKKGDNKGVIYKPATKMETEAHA
Assay: stopped-flow CO2 hydrase assay
Type: biochemical
Label Condition met when Ki is strictly below 800 nM; otherwise label Condition not met.

Would you please look over these solved cases?
O=C(O)CN1C(=O)SC(=Cc2ccc(Br)cc2)C1=O ... Condition not met
COc1cccc(C=C2SC(=O)N(CC(=O)O)C2=O)c1 ... Condition met
O=C(O)CN1C(=O)SC(=Cc2ccccc2Cl)C1=O ... Condition met

Take the molecule Cc1ccc(C=C2SC(=O)N(CC(=O)O)C2=O)cc1 and say whether its Ki is less than 800 nM. Condition not met

Take the molecule O=C(O)CN1C(=O)SC(=Cc2ccccc2)C1=O and say whether its Ki is less than 800 nM. Condition met

Take the molecule COc1ccc(C=C2SC(=O)N(CC(=O)O)C2=O)cc1 and say whether its Ki is less than 800 nM. Condition not met

Take the molecule O=C(O)CN1C(=O)SC(=Cc2ccc(Cl)cc2)C1=O and say whether its Ki is less than 800 nM. Condition met

All values here come from paper PMC7006686.
